- Tested on: P388 leukemia ip, CD2F1 mice, survival T/C
- EXPERIMENT_DESCRIPTION: NCI In Vivo Anticancer Drug Screen. Data for tumor model P388 Leukemia (intraperitoneal) in CD2F1 (CDF1) mice
- EXPERIMENTAL_SETUP: endpoint: median survival time; dose: 100.0 mg/kg/injection; schedule: Q04DX003 (ip); vehicle: saline with Tween-80; higher = longer survival
Inconclusive results and toxic doses are left out.
T/C by entry:
MEASURE_NAME: T/C

>>> df
                                   compound                           subject_of_test   measured_result
0  Cc1cc2c(cc1C)NC(C)CC(=O)N2 (configuration not stated)  P388 leukemia ip, CD2F1 mice, survival T/C  109 % of control
1          Nc1[nH]nc2nc(-c3ccc(Cl)cc3)cnc12  P388 leukemia ip, CD2F1 mice, survival T/C  100 % of control
2           Nc1nc(=S)c2[nH]c(=S)[nH]c2[nH]1  P388 leukemia ip, CD2F1 mice, survival T/C  118 % of control
3                     C/C(=C\C(=O)O)CC(=O)O  P388 leukemia ip, CD2F1 mice, survival T/C   92 % of control
4                     CNC(=O)Nc1cc2ccccc2o1  P388 leukemia ip, CD2F1 mice, survival T/C  110 % of control
5  O=C(O)C1CC(=O)N(Cc2ccccc2)C1 (configuration not stated)  P388 leukemia ip, CD2F1 mice, survival T/C   95 % of control
6  CC(O)CC1=Nc2c(nc(N)[nH]c2=O)N(C)C1 (configuration not stated)  P388 leukemia ip, CD2F1 mice, survival T/C   98 % of control
